Reported LC50 by item:
- Assay protocol: Toxicity against brine shrimp
- Assay type: organism-based
- Test settings: artemia, in vivo; read-out: LD50 (the source's name)

CCCCCC[C@H](C)C(=O)/C=C1\C(C(=O)OC)=C2C=COC(C)=C2[C@]1(C)O [SEQUOIATONE C]    260 µM
COC(=O)C1=C2C=COC(C)=C2[C@](C)(O)/C1=C/C(=O)[C@@H](C)CCCCCCO [SEQUOIATONE E]    640 µM
COC(=O)C1=C2C=C(C)OC=C2[C@](C)(O)/C1=C/C(=O)[C@@H](C)CCCCCCO [SEQUOIATONE D]    1300 µM

Let us examine a further case.
Enquiry: Please give the measured LC50 for this compound: CCCCCC[C@H](C)C(=O)/C=C1\C(C(=O)OC)=C2C=C(C)OC=C2[C@]1(C)O [SEQUOIATONE F]
Return: 260 µM
